- assay.procedure: Water solubility
- Assay type: physicochemical
- details: Table 5C
measured.quantity: solubility (mM)
Report the value in mM with no unit label.

solubility for CCc1cc(OCCCCn2cc(COCCOCCOCCOCCOCCOCCOCCOCCN)nn2)ccc1-c1ccc(C[C@H](NC(=O)[C@H](CC(=O)O)NC(=O)[C@H](CO)NC(=O)[C@@H](NC(=O)C(C)(Cc2ccccc2F)NC(=O)[C@@H](NC(=O)CNC(=O)[C@H](Cc2nn[nH]n2)NC(=O)C(C)(C)C(=O)NCCc2cnc[nH]2)[C@@H](C)O)[C@@H](C)O)C(=O)N[C@@H](CCCc2cc(C)cc(C)c2)C(N)=O)cc1 (stereo partly shown) [LP11, NH2-PEG8-triazole-P8] ? 60
